System: Eleven human cancer cell lines
Assay: MTT colorimetric assay, across the eleven human cancer cell lines
Type: cell-based
Details: Homo sapiens; MTT colorimetric assay; read-out: IC50 growth inhibitory values, range depending on the cancer cell line analyzed
pIC50: −log10 of the molar value.
MEASURE: pIC50

Query string: Complete the entry with pIC50 for COc1cc(C(=O)OCCCCCCOC(=O)c2ccc(O)c(OC)c2)ccc1O [DLT11]
Result string: 4.15 to 4.66

###

// reported IC50 for each item listed
Molecular target: UniProtKB Q13627
# output: bare number, implied unit µM

In [3]: df
Out[3]:
                            chemical_smiles  experimental_system  measure  value
0  O=C(OCc1cc(COC(=O)c2ccc(O)c(Cl)c2)cc(COC(=O)c2ccc(O)c(Cl)c2)c1)c1ccc(O)c(Cl)c1     UniProtKB Q13627     IC50    3.2

Alright, here's another molecule for you.
Query string: Determine reported IC50 for "O=C(OCc1cc(COC(=O)c2ccc(O)c(F)c2)cc(COC(=O)c2ccc(O)c(F)c2)c1)c1ccc(O)c(F)c1" ; test system: UniProtKB Q13627.
Result string: 7.1

###

System: VM48 melanoma cells
Assay: MTT colorimetric assay, overall cell growth, VM48
Type: cell-based, human
Conditions: Homo sapiens; MTT, 72 hours of incubation; read-out: In Vitro IC50 Growth Inhibitory Values, VM48
MEASURE: IC50 (µM)
Numbers only here, please. The scale is µM.

Some compounds with recorded IC50:
                            chemical_smiles  measure  value
0  O=C(OCCOC(=O)c1ccc(O)c(Cl)c1)c1ccc(O)c(Cl)c1     IC50     84
1  COc1cc(C(=O)OCCCOC(=O)c2ccc(O)c(OC)c2)ccc1O     IC50     68
2  COc1cc(C(=O)OCCCCCCCCOC(=O)c2ccc(O)c(OC)c2)ccc1O     IC50     26

# evaluate next
Query string: Return IC50 (reported value) for this compound: "O=C(OCCOC(=O)c1cc(O)c(O)c(O)c1)c1cc(O)c(O)c(O)c1"
Result string: 35

###

Biological target: WEE1 kinase (Homo sapiens, UniProt P30291)
Construct: made in house
Sequence (P30291 whole entry): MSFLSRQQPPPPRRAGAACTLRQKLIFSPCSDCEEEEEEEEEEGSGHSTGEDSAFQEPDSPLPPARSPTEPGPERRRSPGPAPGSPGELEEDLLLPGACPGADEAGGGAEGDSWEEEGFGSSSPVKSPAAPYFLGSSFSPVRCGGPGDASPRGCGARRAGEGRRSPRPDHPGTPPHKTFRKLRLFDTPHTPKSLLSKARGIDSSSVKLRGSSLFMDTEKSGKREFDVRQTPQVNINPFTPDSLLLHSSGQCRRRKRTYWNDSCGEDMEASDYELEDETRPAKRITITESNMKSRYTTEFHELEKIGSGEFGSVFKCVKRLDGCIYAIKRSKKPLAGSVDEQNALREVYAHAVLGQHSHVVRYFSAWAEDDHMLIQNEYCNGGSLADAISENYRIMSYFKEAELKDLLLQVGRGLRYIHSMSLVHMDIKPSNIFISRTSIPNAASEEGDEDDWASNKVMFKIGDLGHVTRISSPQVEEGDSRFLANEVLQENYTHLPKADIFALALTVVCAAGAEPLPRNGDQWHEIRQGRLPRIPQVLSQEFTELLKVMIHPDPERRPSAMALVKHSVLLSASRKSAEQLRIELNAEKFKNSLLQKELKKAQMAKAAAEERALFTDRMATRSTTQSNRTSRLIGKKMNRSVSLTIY
Test: Radiometric protein kinase assay (33 PanQinase), WEE1
Assay type: biochemical
Settings: dose-response 0-100 μM, n=3; read-out: IC50: Concentration of drug needed in order to inhibit kinase activity by 50%, WEE1
MEASURE: IC50 (µM)
Numeric only. Scale: µM

>>> print(df.to_string())
                            chemical_smiles  measure  value
0  O=C(OCc1cc(COC(=O)c2ccc(O)c(F)c2)cc(COC(=O)c2ccc(O)c(F)c2)c1)c1ccc(O)c(F)c1     IC50   7.12

Attention now shifts to the item below.
Query string: # return recorded IC50 for input "O=C(OCc1cc(COC(=O)c2ccc(O)c(Cl)c2)cc(COC(=O)c2ccc(O)c(Cl)c2)c1)c1ccc(O)c(Cl)c1"
Result string: 3.74

###

Test system: Eleven human cancer cell lines
Assay: MTT colorimetric assay, across the eleven human cancer cell lines
Assay type: cell-based
Conditions: mean ± SEM over the 11 human cancer cell lines, MTT, 72 hours; read-out: In Vitro IC50 Growth Inhibitory Values, m ± SEM
MEASURE: IC50 (µM)
Number in µM, nothing else.

Look over these answered cases.
                                   compound  measure  value
0  O=C(O[C@@H]1CCCC[C@H]1OC(=O)c1ccc(O)c(Cl)c1)c1ccc(O)c(Cl)c1 (relative stereo)     IC50     32
1  O=C(OCCOC(=O)c1cc(O)c(O)c(O)c1)c1cc(O)c(O)c(O)c1     IC50     30

Okay, now this compound:
Query string: Given "COc1cc(C(=O)OCc2cccc(COC(=O)c3ccc(O)c(OC)c3)c2)ccc1O" , respond with its IC50.
Result string: 52

###

Test system: LoVo colon cancer cells
Assay: MTT colorimetric assay, overall cell growth, LoVo
Type: cell-based, human
Details: 72 hours of incubation, read-out: In Vitro IC50 Growth Inhibitory Values, LoVo
Consider the following compounds and their measured pIC50 readings.
pIC50 is a log-scale quantity: -log10 of the concentration expressed in molar.

Query string: Identify measured pIC50 corresponding to O=C(O[C@@H]1CCCC[C@H]1OC(=O)c1cc(O)c(O)c(O)c1)c1cc(O)c(O)c(O)c1 (stereo in doubt)
Result string: 4.47

Query string: Determine its reported pIC50: O=C(O[C@H]1CCCC[C@@H]1OC(=O)c1cc(O)c(O)c(O)c1)c1cc(O)c(O)c(O)c1 (stereo in doubt)
Result string: 4.37

Query string: Using the record for COc1cc(C(=O)O[C@@H]2CCC[C@H]2OC(=O)c2ccc(O)c(OC)c2)ccc1O (stereo in doubt) , state its measured pIC50.
Result string: 4.54

###

System: Eleven human cancer cell lines
Assay: MTT colorimetric assay, across the eleven human cancer cell lines
Assay type: cell-based
Conditions: mean ± SEM over the 11 human cancer cell lines, MTT, 72 hours; read-out: In Vitro IC50 Growth Inhibitory Values, m ± SEM
Recorded IC50, one value per entry.
Field format: number, assumed µM, no unit text.

                                   molecule             experimental_system  measurement_units  value
0  COc1cc(C(=O)OCCCCCCCCOC(=O)c2ccc(O)c(OC)c2)ccc1O  Eleven human cancer cell lines                 µM     42
1  COc1cc(C(=O)O[C@H]2CCCCC[C@@H]2OC(=O)c2ccc(O)c(OC)c2)ccc1O (relative stereo)  Eleven human cancer cell lines                 µM     52
2  COc1cc(C(=O)O[C@H]2CCCC[C@H]2OC(=O)c2ccc(O)c(OC)c2)ccc1O  Eleven human cancer cell lines                 µM     48
3  COc1cc(C(=O)OCCCCCCOC(=O)c2ccc(O)c(OC)c2)ccc1O  Eleven human cancer cell lines                 µM     49

Query string: Give reported IC50 for "COc1cc(C(=O)OCc2ccccc2COC(=O)c2ccc(O)c(OC)c2)ccc1O" (Eleven human cancer cell lines)
Result string: 53

Query string: Name the value of IC50 reported for COc1cc(C(=O)O[C@@H]2CCC[C@H]2OC(=O)c2ccc(O)c(OC)c2)ccc1O (stereo in doubt) when tested on Eleven human cancer cell lines.
Result string: 27

Query string: Report the value of IC50 obtained on Eleven human cancer cell lines for "COc1cc(C(=O)OCC#CCOC(=O)c2ccc(O)c(OC)c2)ccc1O" .
Result string: 50

Query string: State IC50 (Eleven human cancer cell lines) of COc1cc(C(=O)O[C@@H]2CC[C@@H](OC(=O)c3ccc(O)c(OC)c3)C2)ccc1O (stereo in doubt) .
Result string: 34

Query string: Give IC50 for O=C(O[C@H]1CCCC[C@@H]1OC(=O)c1cc(O)c(O)c(O)c1)c1cc(O)c(O)c(O)c1 (stereo in doubt) tested on Eleven human cancer cell lines.
Result string: 43

###

System: A549 non-small-cell-lung cancer cell line
Assay: Cellular imaging (quantitative videomicroscopy), global growth ratio, A549
Format: cell-based
Conditions: Homo sapiens, 72 h, read-out: Global Grow Ratio Treated/Ct (GGR T/Ct) determined by Video Quantitative microscopy, A549
MEASURE: activity at 50 µM (%)
State the answer as a number, implicitly in %.

In [3]: df
Out[3]:
                                   compound            measure  value
0  COc1cc(C(=O)OC2CCCC[C@@H]2OC(=O)c2ccc(O)c(OC)c2)ccc1O (stereo partly drawn)  activity at 50 µM     20

Query string: Indicate its recorded activity at 50 µM; the compound in question is COc1cc(C(=O)OC2CCCC(OC(=O)c3ccc(O)c(OC)c3)C2)ccc1O (mixture of isomers)
Result string: 10

Query string: Give recorded activity at 50 µM. "COc1cc(C(=O)OCCCCOC(=O)c2ccc(O)c(OC)c2)ccc1O"
Result string: 20

###

Target: Aurora B kinase (Homo sapiens, UniProt Q96GD4)
Sequence (Q96GD4 whole entry): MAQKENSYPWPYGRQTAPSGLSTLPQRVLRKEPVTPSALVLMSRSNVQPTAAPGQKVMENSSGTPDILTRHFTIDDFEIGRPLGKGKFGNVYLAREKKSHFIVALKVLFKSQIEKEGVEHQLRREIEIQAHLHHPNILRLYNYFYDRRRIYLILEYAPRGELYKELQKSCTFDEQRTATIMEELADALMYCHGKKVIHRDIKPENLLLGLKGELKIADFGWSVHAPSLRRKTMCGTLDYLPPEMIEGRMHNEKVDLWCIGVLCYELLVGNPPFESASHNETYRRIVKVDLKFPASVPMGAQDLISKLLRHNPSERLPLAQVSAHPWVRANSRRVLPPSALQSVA
Consider the following molecules and their measured pIC50 readings.
Quick note: pIC50 values are minus log10 of concentrations in mol/L.

Examples with answers:
In [3]: df
Out[3]:
                            chemical_smiles  value
0  O=C(OCc1cc(COC(=O)c2ccc(O)c(F)c2)cc(COC(=O)c2ccc(O)c(F)c2)c1)c1ccc(O)c(F)c1   5.62
1  COc1cc(C(=O)OCc2cc(COC(=O)c3ccc(O)c(OC)c3)cc(COC(=O)c3ccc(O)c(OC)c3)c2)ccc1O   5.47

Kindly review the next molecule as well.
Query string: # return recorded pIC50 for entry "O=C(OCc1cc(COC(=O)c2ccc(O)c(Cl)c2)cc(COC(=O)c2ccc(O)c(Cl)c2)c1)c1ccc(O)c(Cl)c1"
Result string: 6.05
